Origin of values: BigSolDB 2.1

Conditions: in chloroform, 298.15 K
result.type: solubility (mole fraction)
The reply should be a number, written without any unit.

Query :: Request the reported solubility (mole fraction) associated with "O=[N+]([O-])c1c(Cl)cc(Cl)c([N+](=O)[O-])c1Cl"
Result :: 0.121

----------
Conditions: in n-propanol, 283.15 K
result.type: solubility (mole fraction)
The reply should be a number, written without any unit.

Query :: Request the reported solubility (mole fraction) associated with "O=[N+]([O-])c1c(Cl)cc(Cl)c([N+](=O)[O-])c1Cl"
Result :: 0.0049

----------
Conditions: in ethyl acetate, 288.15 K
result.type: solubility (mole fraction)

Query :: Request the reported solubility (mole fraction) associated with "O=[N+]([O-])c1c(Cl)cc(Cl)c([N+](=O)[O-])c1Cl"
Result :: 0.0947

----------
Details: in tetrachloromethane, 308.15 K
result.type: solubility (mole fraction)
The reply should be a number, written without any unit.

Query :: Request the reported solubility (mole fraction) associated with "O=[N+]([O-])c1c(Cl)cc(Cl)c([N+](=O)[O-])c1Cl"
Result :: 0.0492

----------
Conditions: in acetonitrile, 283.15 K
result.type: solubility (mole fraction)

Query :: Request the reported solubility (mole fraction) associated with "O=[N+]([O-])c1c(Cl)cc(Cl)c([N+](=O)[O-])c1Cl"
Result :: 0.0267

----------
Conditions: in n-propanol, 303.15 K
result.type: solubility (mole fraction)

Query :: Request the reported solubility (mole fraction) associated with "O=[N+]([O-])c1c(Cl)cc(Cl)c([N+](=O)[O-])c1Cl"
Result :: 0.00921

----------
Settings: in n-butanol, 293.15 K
result.type: solubility (mole fraction)
The reply should be a number, written without any unit.

Query :: Request the reported solubility (mole fraction) associated with "O=[N+]([O-])c1c(Cl)cc(Cl)c([N+](=O)[O-])c1Cl"
Result :: 0.00776

----------
Settings: in methyl acetate, 293.15 K
result.type: solubility (mole fraction)
The reply should be a number, written without any unit.

Query :: Request the reported solubility (mole fraction) associated with "O=[N+]([O-])c1c(Cl)cc(Cl)c([N+](=O)[O-])c1Cl"
Result :: 0.109

----------
Settings: in dichloromethane, 288.15 K
result.type: solubility (mole fraction)
The reply should be a number, written without any unit.

Query :: Request the reported solubility (mole fraction) associated with "O=[N+]([O-])c1c(Cl)cc(Cl)c([N+](=O)[O-])c1Cl"
Result :: 0.0869

----------
Conditions: in ethanol, 283.15 K
result.type: solubility (mole fraction)
The reply should be a number, written without any unit.

Query :: Request the reported solubility (mole fraction) associated with "O=[N+]([O-])c1c(Cl)cc(Cl)c([N+](=O)[O-])c1Cl"
Result :: 0.00461
